Reference source for all entries: patent US12291519B2

Subject of test: human Gal-1 (hGal-1) (Homo sapiens, UniProt P09382)
Sequence (P09382 2-135 limits assumed): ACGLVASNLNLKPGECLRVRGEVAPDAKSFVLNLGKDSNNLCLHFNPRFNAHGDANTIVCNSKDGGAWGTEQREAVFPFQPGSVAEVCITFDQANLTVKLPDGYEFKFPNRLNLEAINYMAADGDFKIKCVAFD
pIC50: −log10 of the molar value.

>  <Smiles data>
CO[C@@H]1[C@@H](n2cc(-c3cc(F)c(C)c(F)c3)nn2)[C@@H](O)[C@@H](CO)O[C@H]1C(=O)N(c1cc(F)cc(Br)c1)[C@H]1CCCC[C@@H]1O

>  <Subject of test>
human Gal-1 (hGal-1) (Homo sapiens, UniProt P09382)

>  <pIC50>
5.75

$$$$

====

List of IC50 tested on human Gal-3 (hGal-3) (Homo sapiens (Human), UniProt P17931).
Sequence (P17931 whole entry): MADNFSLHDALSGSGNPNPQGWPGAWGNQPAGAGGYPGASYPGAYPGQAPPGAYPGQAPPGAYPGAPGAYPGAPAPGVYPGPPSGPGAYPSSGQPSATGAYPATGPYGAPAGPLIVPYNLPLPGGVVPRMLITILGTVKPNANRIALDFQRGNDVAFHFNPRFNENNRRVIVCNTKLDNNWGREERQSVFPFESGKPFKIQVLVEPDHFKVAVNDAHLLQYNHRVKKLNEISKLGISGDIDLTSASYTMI
Result type: IC50 (nM)

>  <Compound>
COc1cc(C#N)cc(N(C(=O)[C@@H]2O[C@H](CO)[C@H](O)[C@H](n3cc(-c4cc(F)cc(F)c4)nn3)[C@H]2OC)[C@H]2CCCC[C@@H]2O)c1 [Example 82]

>  <Subject of test>
human Gal-3 (hGal-3) (Homo sapiens (Human), UniProt P17931)

>  <Scale unit>
nM

>  <Number>
17

$$$$
>  <Compound>
CO[C@@H]1[C@@H](n2cc(-c3cc(F)c(F)c(Cl)c3)nn2)[C@@H](O)[C@@H](CO)O[C@H]1C(=O)N(c1cc(Cl)cc(Cl)c1)[C@H]1CCCC[C@@H]1O [Example 129]

>  <Subject of test>
human Gal-3 (hGal-3) (Homo sapiens (Human), UniProt P17931)

>  <Scale unit>
nM

>  <Number>
32

$$$$
>  <Compound>
CC(=O)O[C@@H]1[C@@H](n2cc(-c3cccc(F)c3)nn2)[C@@H](O)[C@@H](CO)O[C@H]1C(=O)N(Cc1ccccc1C(F)(F)F)[C@H]1CCCC[C@@H]1O [Example 62]

>  <Subject of test>
human Gal-3 (hGal-3) (Homo sapiens (Human), UniProt P17931)

>  <Scale unit>
nM

>  <Number>
141

$$$$
>  <Compound>
CO[C@@H]1[C@@H](n2cc(-c3cc(F)c(F)c(F)c3)nn2)[C@@H](O)[C@@H](CO)O[C@H]1C(=O)N(c1cccc2ccccc12)[C@H]1CCCC[C@@H]1O [Example 198]

>  <Subject of test>
human Gal-3 (hGal-3) (Homo sapiens (Human), UniProt P17931)

>  <Scale unit>
nM

>  <Number>
117

$$$$
>  <Compound>
CO[C@@H]1[C@@H](n2cc(-c3cc(F)cc(F)c3)nn2)[C@@H](O)[C@@H](CO)O[C@H]1C(=O)N(c1cccc(Cl)c1)[C@H]1CCCC[C@@H]1O [Example 85]

>  <Subject of test>
human Gal-3 (hGal-3) (Homo sapiens (Human), UniProt P17931)

>  <Scale unit>
nM

>  <Number>
35

$$$$
>  <Compound>
CO[C@@H]1[C@@H](n2cc(-c3cc(F)cc(Cl)c3)nn2)[C@@H](O)[C@@H](CO)O[C@H]1C(=O)N(c1cc(F)cc(C#N)c1)[C@H]1CCCC[C@@H]1O [Example 135]

>  <Subject of test>
human Gal-3 (hGal-3) (Homo sapiens (Human), UniProt P17931)

>  <Scale unit>
nM

>  <Number>
52

$$$$
>  <Compound>
CO[C@@H]1[C@@H](n2cc(-c3ccc(Br)c(F)c3F)nn2)[C@@H](O)[C@@H](CO)O[C@H]1C(=O)N(c1cc(F)cc(C#N)c1)[C@H]1CCCC[C@@H]1O [Example 176]

>  <Subject of test>
human Gal-3 (hGal-3) (Homo sapiens (Human), UniProt P17931)

>  <Scale unit>
nM

>  <Number>
15

$$$$
>  <Compound>
CO[C@@H]1[C@@H](n2cc(-c3cc(F)c(Br)c(F)c3)nn2)[C@@H](O)[C@@H](CO)O[C@H]1C(=O)N(c1cc(F)cc(C#N)c1)[C@H]1CCCC[C@@H]1O [Example 155]

>  <Subject of test>
human Gal-3 (hGal-3) (Homo sapiens (Human), UniProt P17931)

>  <Scale unit>
nM

>  <Number>
24

$$$$
>  <Compound>
O=C(CO[C@@H]1[C@@H](n2cc(-c3cc(F)c(F)c(F)c3)nn2)[C@@H](O)[C@@H](CO)O[C@H]1C(=O)N(c1cc(Cl)cc(Cl)c1)[C@H]1CCCC[C@@H]1O)N1CCOCC1 [Example 124]

>  <Subject of test>
human Gal-3 (hGal-3) (Homo sapiens (Human), UniProt P17931)

>  <Scale unit>
nM

>  <Number>
12

$$$$
>  <Compound>
CO[C@@H]1[C@@H](n2cc(-c3cc(F)cc(Cl)c3)nn2)[C@@H](O)[C@@H](CO)O[C@H]1C(=O)N(c1cc(Cl)cc(Cl)c1)[C@H]1CCCC[C@@H]1O [Example 139]

>  <Subject of test>
human Gal-3 (hGal-3) (Homo sapiens (Human), UniProt P17931)

>  <Scale unit>
nM

>  <Number>
27

$$$$

====

Subject of test: human Gal-1 (hGal-1)
Sequence (P09382 2-135 limits assumed): as the sequence (P09382 2-135 limits assumed) above
Protocol text: Competitive binding assay: biotinylated hGal-1 binding to microplate-adsorbed asialofetuin (ASF)
Test conditions: Activity on hGal-1; binding of biotinylated hGal-1 to ASF-coated plates; mean values

>  <Molecule>
O=C([C@@H]1O[C@H](CO)[C@H](O)[C@H](n2cc(-c3cc(F)c(F)c(F)c3)nn2)[C@H]1O)N(Cc1cccc(Cl)c1)[C@H]1CCCC[C@@H]1O [Example 2]

>  <Subject of test>
human Gal-1 (hGal-1)

>  <IC50 (µM)>
22.8

$$$$
>  <Molecule>
CO[C@@H]1[C@@H](n2cc(-c3cc(F)c(F)c(F)c3)nn2)[C@@H](O)[C@@H](CO)O[C@H]1C(=O)N(Cc1nc[nH]c1C)[C@H]1CCCC[C@@H]1O [Example 30]

>  <Subject of test>
human Gal-1 (hGal-1)

>  <IC50 (µM)>
10.4

$$$$
>  <Molecule>
CO[C@@H]1[C@@H](n2cc(-c3ccc(Cl)cc3)nn2)[C@@H](O)[C@@H](CO)O[C@H]1C(=O)N(c1cc(Cl)cc(C#N)c1)[C@H]1CCCC[C@@H]1O [Example 201]

>  <Subject of test>
human Gal-1 (hGal-1)

>  <IC50 (µM)>
0.242

$$$$
>  <Molecule>
CO[C@@H]1[C@@H](n2cc(-c3cc(F)cc(Cl)c3)nn2)[C@@H](O)[C@@H](CO)O[C@H]1C(=O)N(c1cccc(C#N)c1)[C@H]1CCCC[C@@H]1O [Example 142]

>  <Subject of test>
human Gal-1 (hGal-1)

>  <IC50 (µM)>
1.67

$$$$
>  <Molecule>
CO[C@@H]1[C@@H](n2cc(-c3cc(F)c(F)c(F)c3)nn2)[C@@H](O)[C@@H](CO)O[C@H]1C(=O)N(c1cccc(Cl)c1)[C@H]1CCCCC[C@@H]1O [Example 207]

>  <Subject of test>
human Gal-1 (hGal-1)

>  <IC50 (µM)>
1.79

$$$$

====

Subject of test: human Gal-1 (hGal-1)
Protocol text: Competitive binding assay: biotinylated hGal-1 binding to microplate-adsorbed asialofetuin (ASF)
Test conditions: Activity on hGal-1; binding of biotinylated hGal-1 to ASF-coated plates; mean values
pIC50: −log10 of the molar value.
Reported pIC50 is given for each of the following compounds.

>  <Compound>
CO[C@@H]1[C@@H](n2cc(-c3cc(F)cc(Cl)c3)nn2)[C@@H](O)[C@@H](CO)O[C@H]1C(=O)N(c1cccc(Cl)c1)[C@H]1CCCC[C@@H]1O [Example 143]

>  <pIC50>
5.85

$$$$
>  <Compound>
CO[C@@H]1[C@@H](n2cc(-c3cc(F)cc(Cl)c3)nn2)[C@@H](O)[C@@H](CO)O[C@H]1C(=O)N(c1cc(Cl)cc(Cl)c1)[C@H]1CCCC[C@@H]1O [Example 139]

>  <pIC50>
6.07

$$$$
>  <Compound>
CO[C@@H]1[C@@H](n2cc(-c3cc(F)c(F)c(F)c3)nn2)[C@@H](O)[C@@H](CO)O[C@H]1C(=O)N(c1cc(Cl)cc(C(F)(F)F)c1)[C@H]1CCCC[C@@H]1O [Example 95]

>  <pIC50>
6.40

$$$$

====

Reported log10 of IC50 is given for each of the following molecules.
Subject of test: human Gal-1 (hGal-1)
Protocol text: Competitive binding assay: biotinylated hGal-1 binding to microplate-adsorbed asialofetuin (ASF)
Test conditions: Activity on hGal-1; binding of biotinylated hGal-1 to ASF-coated plates; mean values
Result type: log10 of IC50 (log10 of the value in nM)

>  <Smiles data>
CO[C@@H]1[C@@H](n2cc(-c3nc(Cl)cs3)nn2)[C@@H](O)[C@@H](CO)O[C@H]1C(=O)N(c1cccc(F)c1F)[C@H]1CCCC[C@@H]1O

>  <log10 of IC50>
2.78

$$$$
>  <Smiles data>
CO[C@@H]1[C@@H](n2cc(-c3ccc(Cl)c(Cl)c3)nn2)[C@@H](O)[C@@H](CO)O[C@H]1C(=O)N(c1cc(F)cc(C#N)c1)[C@H]1CCCC[C@@H]1O

>  <log10 of IC50>
2.56

$$$$
>  <Smiles data>
CO[C@@H]1[C@@H](n2cc(-c3cc(F)c(F)c(F)c3)nn2)[C@@H](O)[C@@H](CO)O[C@H]1C(=O)N(c1ccc2nc(Cl)sc2c1)[C@H]1CCCC[C@@H]1O

>  <log10 of IC50>
3.08

$$$$
>  <Smiles data>
CC(=O)O[C@@H]1[C@@H](n2cc(-c3cc(F)c(F)c(F)c3)nn2)[C@@H](O)[C@@H](CO)O[C@H]1C(=O)N(Cc1ccnn1C)[C@H]1CCCC[C@@H]1O

>  <log10 of IC50>
3.43

$$$$
>  <Smiles data>
CO[C@@H]1[C@@H](n2cc(-c3cc(F)c(F)c(F)c3)nn2)[C@@H](O)[C@@H](CO)O[C@H]1C(=O)N(Cc1nccn1C)[C@H]1CCCC[C@@H]1O

>  <log10 of IC50>
3.76

$$$$
>  <Smiles data>
CO[C@@H]1[C@@H](n2cc(-c3cc(F)c(F)c(F)c3)nn2)[C@@H](O)[C@@H](CO)O[C@H]1C(=O)N(c1cccc(F)c1)[C@H]1CCCC[C@@H]1O

>  <log10 of IC50>
3.30

$$$$
>  <Smiles data>
CO[C@@H]1[C@@H](n2cc(-c3cc(F)c(C)c(F)c3)nn2)[C@@H](O)[C@@H](CO)O[C@H]1C(=O)N(c1cc(Cl)cc(Cl)c1)[C@H]1CCCC[C@@H]1O

>  <log10 of IC50>
2.90

$$$$
>  <Smiles data>
CO[C@@H]1[C@@H](n2cc(-c3cc(F)c(F)c(F)c3)nn2)[C@@H](O)[C@@H](CO)O[C@H]1C(=O)N(Cc1ccsc1C)[C@H]1CCCC[C@@H]1O

>  <log10 of IC50>
3.23

$$$$
>  <Smiles data>
CO[C@@H]1[C@@H](n2cc(-c3cc(F)c(F)c(F)c3)nn2)[C@@H](O)[C@@H](CO)O[C@H]1C(=O)N(c1cc(F)cc(F)c1)[C@H]1CCCC[C@@H]1O

>  <log10 of IC50>
2.99

$$$$
>  <Smiles data>
CO[C@@H]1[C@@H](n2cc(-c3cc(F)c(F)c(F)c3)nn2)[C@@H](O)[C@@H](CO)O[C@H]1C(=O)N(c1ccc(Cl)cc1)[C@H]1CCCC[C@@H]1O

>  <log10 of IC50>
3.63

$$$$
>  <Smiles data>
CO[C@@H]1[C@@H](n2cc(-c3cc(F)c(F)c(F)c3)nn2)[C@@H](O)[C@@H](CO)O[C@H]1C(=O)N(c1cccc(C(F)(F)F)c1)[C@H]1CCCC[C@@H]1O

>  <log10 of IC50>
3.29

$$$$
>  <Smiles data>
CO[C@@H]1[C@@H](n2cc(-c3cc(F)c(F)c(F)c3)nn2)[C@@H](O)[C@@H](CO)O[C@H]1C(=O)N(Cc1cc2ccccc2n1C)[C@H]1CCCC[C@@H]1O

>  <log10 of IC50>
3.35

$$$$
>  <Smiles data>
CO[C@@H]1[C@@H](n2cc(-c3cc(F)c(F)c(F)c3)nn2)[C@@H](O)[C@@H](CO)O[C@H]1C(=O)N(c1ccc(F)c(Br)c1)[C@H]1CCCC[C@@H]1O

>  <log10 of IC50>
2.53

$$$$
>  <Smiles data>
CO[C@@H]1[C@@H](n2cc(-c3cc(F)c(F)c(F)c3)nn2)[C@@H](O)[C@@H](CO)O[C@H]1C(=O)N(c1ccc(Cl)c(Br)c1)[C@H]1CCCC[C@@H]1O

>  <log10 of IC50>
2.58

$$$$
>  <Smiles data>
COc1cc(Cl)cc(N(C(=O)[C@@H]2O[C@H](CO)[C@H](O)[C@H](n3cc(-c4cc(F)c(F)c(F)c4)nn3)[C@H]2OC)[C@H]2CCCC[C@@H]2O)c1

>  <log10 of IC50>
3.08

$$$$
>  <Smiles data>
CO[C@@H]1[C@@H](n2cc(-c3cc(F)cc(F)c3)nn2)[C@@H](O)[C@@H](CO)O[C@H]1C(=O)N(c1cccc(C#N)c1)[C@H]1CCCC[C@@H]1O

>  <log10 of IC50>
3.27

$$$$
>  <Smiles data>
CO[C@@H]1[C@@H](n2cc(-c3ccc(C)c(F)c3)nn2)[C@@H](O)[C@@H](CO)O[C@H]1C(=O)N(c1cc(Cl)cc(C#N)c1)[C@H]1CCCC[C@@H]1O

>  <log10 of IC50>
2.76

$$$$
>  <Smiles data>
CO[C@@H]1[C@@H](n2cc(-c3cc(F)c(F)c(F)c3)nn2)[C@@H](O)[C@@H](CO)O[C@H]1C(=O)N(c1ccc2nc(C)[nH]c2c1)[C@H]1CCCC[C@@H]1O

>  <log10 of IC50>
3.77

$$$$
>  <Smiles data>
CO[C@@H]1[C@@H](n2cc(-c3cc(F)c(F)c(F)c3)nn2)[C@@H](O)[C@@H](CO)O[C@H]1C(=O)N(c1cccc(Br)c1)[C@H]1CCCC[C@@H]1O

>  <log10 of IC50>
2.38

$$$$
>  <Smiles data>
O=C([C@@H]1O[C@H](CO)[C@H](O)[C@H](n2cc(-c3cc(F)c(F)c(F)c3)nn2)[C@H]1O)N(Cc1ncc(Cl)s1)[C@H]1CCCC[C@@H]1O

>  <log10 of IC50>
4.36

$$$$
>  <Smiles data>
CC(=O)O[C@@H]1[C@@H](n2cc(-c3cccc(F)c3)nn2)[C@@H](O)[C@@H](CO)O[C@H]1C(=O)N(Cc1ccccc1C(F)(F)F)[C@H]1CCCC[C@@H]1O

>  <log10 of IC50>
2.97

$$$$
